Origin of the recorded values: patent US12404241B2

Study system: AR (Homo sapiens, UniProt P10275)
Construct: endogenous in cells; host or cells: VCaP cells
Sequence (P10275 1-920): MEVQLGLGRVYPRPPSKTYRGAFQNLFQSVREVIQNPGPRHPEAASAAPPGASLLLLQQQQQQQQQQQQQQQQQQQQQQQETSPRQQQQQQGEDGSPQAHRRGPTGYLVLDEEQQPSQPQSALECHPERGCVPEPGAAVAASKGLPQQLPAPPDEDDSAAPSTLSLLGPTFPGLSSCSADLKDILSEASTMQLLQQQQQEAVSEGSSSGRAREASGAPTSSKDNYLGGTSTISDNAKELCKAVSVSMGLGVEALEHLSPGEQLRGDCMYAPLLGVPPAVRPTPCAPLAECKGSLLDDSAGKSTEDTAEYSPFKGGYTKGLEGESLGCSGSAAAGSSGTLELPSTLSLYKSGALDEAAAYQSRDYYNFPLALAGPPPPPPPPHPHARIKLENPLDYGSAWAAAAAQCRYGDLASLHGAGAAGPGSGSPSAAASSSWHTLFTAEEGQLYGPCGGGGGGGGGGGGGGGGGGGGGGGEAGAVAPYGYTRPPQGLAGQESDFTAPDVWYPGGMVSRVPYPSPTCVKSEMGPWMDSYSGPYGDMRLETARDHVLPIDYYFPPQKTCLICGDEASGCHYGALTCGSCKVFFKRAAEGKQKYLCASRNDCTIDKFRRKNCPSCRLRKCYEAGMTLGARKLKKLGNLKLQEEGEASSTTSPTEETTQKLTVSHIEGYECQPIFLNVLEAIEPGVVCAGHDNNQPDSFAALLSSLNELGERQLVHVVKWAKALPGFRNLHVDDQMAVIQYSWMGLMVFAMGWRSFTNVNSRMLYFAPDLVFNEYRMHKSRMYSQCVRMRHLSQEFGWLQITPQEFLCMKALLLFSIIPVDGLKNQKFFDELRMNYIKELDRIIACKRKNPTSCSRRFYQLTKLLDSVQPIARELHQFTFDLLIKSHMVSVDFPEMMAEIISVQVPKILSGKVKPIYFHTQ
Assay procedure: VCAP AR Degradation Assay
Format: cell-based
Experimental setup: class symbols A-C, read-out: DC50
Metric: DC50

- Molecule: "CC(C)c1cc(N2C(=S)N(c3ccc(C#N)c(C(F)(F)F)c3)C(=O)C2(C)C)cnc1OCCN1C[C@@H](C)N(CC(=O)Nc2cc(C#N)cc(NC3CCC(=O)NC3=O)c2)C[C@H]1C (stereo partly drawn)"
  Metric: "DC50"
  Result: "100 to 500 nM"
- Molecule: "CCc1cc(N2C(=S)N(c3ccc(C#N)c(C(F)(F)F)c3)C(=O)C2(C)C)ccc1OCCN1C[C@@H](C)N(CC(=O)Nc2cc(F)cc(NC3CCC(=O)NC3=O)c2)[C@@H](C)C1 (stereo partly drawn)"
  Metric: "DC50"
  Result: "< 100 nM"
- Molecule: "CC(C)c1cc(N2C(=S)N(c3cnc(C#N)c(C(F)(F)F)c3)C(=O)C2(C)C)ccc1OCCN1C[C@@H](C)N(CC(=O)Nc2cccc(NC3CCC(=O)NC3=O)c2)[C@@H](C)C1 (stereo partly drawn)"
  Metric: "DC50"
  Result: "< 100 nM"

---

Study system: AR (Homo sapiens, UniProt P10275)
Construct: endogenous in cells; host or cells: VCaP cells
Sequence (P10275 1-920): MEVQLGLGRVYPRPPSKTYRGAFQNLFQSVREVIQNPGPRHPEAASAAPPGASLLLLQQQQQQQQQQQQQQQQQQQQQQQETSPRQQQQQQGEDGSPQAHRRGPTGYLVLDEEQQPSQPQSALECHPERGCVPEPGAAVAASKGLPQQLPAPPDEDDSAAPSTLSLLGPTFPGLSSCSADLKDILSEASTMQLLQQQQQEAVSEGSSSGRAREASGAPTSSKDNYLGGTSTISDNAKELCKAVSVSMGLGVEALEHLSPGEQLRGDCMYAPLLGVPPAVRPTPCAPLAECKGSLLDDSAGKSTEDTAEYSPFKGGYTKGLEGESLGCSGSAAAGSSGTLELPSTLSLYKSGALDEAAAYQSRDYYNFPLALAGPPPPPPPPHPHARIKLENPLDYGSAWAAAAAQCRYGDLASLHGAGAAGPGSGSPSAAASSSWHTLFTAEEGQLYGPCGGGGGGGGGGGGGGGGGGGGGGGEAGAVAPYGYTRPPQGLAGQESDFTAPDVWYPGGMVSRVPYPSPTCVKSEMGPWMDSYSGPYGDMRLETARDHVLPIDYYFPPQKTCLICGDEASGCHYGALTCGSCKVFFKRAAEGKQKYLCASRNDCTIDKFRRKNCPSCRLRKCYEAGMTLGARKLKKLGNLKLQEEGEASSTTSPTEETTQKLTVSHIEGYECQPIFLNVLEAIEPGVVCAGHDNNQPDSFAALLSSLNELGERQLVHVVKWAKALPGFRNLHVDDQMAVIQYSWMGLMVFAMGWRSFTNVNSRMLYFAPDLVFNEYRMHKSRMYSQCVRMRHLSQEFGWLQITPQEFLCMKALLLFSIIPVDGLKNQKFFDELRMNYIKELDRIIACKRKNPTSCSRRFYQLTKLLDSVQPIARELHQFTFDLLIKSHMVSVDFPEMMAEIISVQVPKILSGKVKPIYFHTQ
Assay procedure: VCAP AR Degradation Assay
Type: cell-based
Experimental setup: class symbols *, **
Structures can show the parent of a compound that is named as a salt.
Metric: Y (AR degradation efficiency, % of DMSO control)

- Compound: "CCc1cc(N2C(=S)N(c3ccc(C#N)c(C(F)(F)F)c3)C(=O)C2(C)C)ccc1OCCN1C[C@@H](C)N(CC(=O)Nc2cc(Cl)cc(NC3CCC(=O)NC3=O)c2)C[C@@H]1C (some centres unmarked) [Example 123]"
  Result: "* (0<Y<=25%)"
- Compound: "CCc1cc(N2C(=S)N(c3cnc(C#N)c(Cl)c3)C(=O)C2(C)C)ccc1OCCN1CCN(CC(=O)Nc2cccc(NC3CCC(=O)NC3=O)c2)[C@H](C)C1 (some centres unmarked) [Example 167]"
  Result: "* (0<Y<=25%)"
- Compound: "CC1(C)C(=O)N(c2cnc(C#N)c(C(F)(F)F)c2)C(=S)N1c1ccc(OCCN2CCN(CC(=O)Nc3cc(Cl)cc(NC4CCC(=O)NC4=O)c3)CC2)c(Cl)c1 (centres unmarked) [Example 14, hydrochloride]"
  Result: "* (0<Y<=25%)"
- Compound: "CCc1cc(N2C(=S)N(c3cnc(C#N)c(C(F)(F)F)c3)C(=O)C2(C)C)ccc1OCCN1CCN(CC(=O)Nc2cccc(NC3CCC(=O)NC3=O)c2)C(C)(C)C1 (centres unmarked) [Example 97]"
  Result: "* (0<Y<=25%)"
- Compound: "C[C@@H]1CN(CCOc2ccc(N3C(=S)N(c4ccc(C#N)c(C(F)(F)F)c4)C(=O)C3(C)C)cc2C2CC2)CCN1CC(=O)Nc1cccc(NC2CCC(=O)NC2=O)c1 (some centres unmarked) [Example 272]"
  Result: "* (0<Y<=25%)"
- Compound: "CC1(C)C(=O)N(c2cnc(C#N)c(C(F)(F)F)c2)C(=S)N1c1ccc(OCCN2CCN(CC(=O)Nc3cccc(NC4CCC(=O)NC4=O)c3)CC2)c(CCF)c1 (centres unmarked) [Example 161]"
  Result: "* (0<Y<=25%)"
- Compound: "CC(C)c1cc(N2C(=S)N(c3cnc(C#N)c(C(F)(F)F)c3)C(=O)C23CCC3)ccc1OCCN1C[C@@H](C)N(CC(=O)Nc2cccc(NC3CCC(=O)NC3=O)c2)[C@@H](C)C1 (some centres unmarked) [Example 176]"
  Result: "* (0<Y<=25%)"
- Compound: "CCCc1cc(N2C(=S)N(c3cnc(C#N)c(C(F)(F)F)c3)C(=O)C2(C)C)ccc1OCCN1CCN(CC(=O)Nc2cccc(NC3CCC(=O)NC3=O)c2)CC1 (centres unmarked) [Example 38, hydrochloride]"
  Result: "* (0<Y<=25%)"
- Compound: "C[C@@H]1CN(CCOc2ccc(N3C(=S)N(c4ccc(C#N)c(C(F)(F)F)c4)C(=O)C3(C)C)cc2CC(F)F)CCN1CC(=O)Nc1cccc(NC2CCC(=O)NC2=O)c1 (some centres unmarked) [Example 153]"
  Result: "* (0<Y<=25%)"
- Compound: "CC(C)c1cc(N2C(=S)N(c3ccc(C#N)c(C(F)(F)F)c3)C(=O)C23CCC3)cnc1OCCN1C[C@@H](C)N(CC(=O)Nc2cc(C#N)cc(NC3CCC(=O)NC3=O)c2)C[C@H]1C (some centres unmarked) [Example 231]"
  Result: "* (0<Y<=25%)"
- Compound: "CCc1cc(N2C(=S)N(c3ccc(C#N)c(C(F)(F)F)c3)C(=O)C2(C)C)ccc1OCCN1C[C@@H](C)N(CC(=O)Nc2cccc(NC3CCC(=O)NC3=O)c2)C[C@@H]1C (some centres unmarked) [Example 121]"
  Result: "* (0<Y<=25%)"
- Compound: "CCc1cc(N2C(=S)N(c3cnc(C#N)c(C(F)(F)F)c3)C(=O)C2(C)C)ccc1OCCN1CCN(CC(=O)Nc2cccc(NC3CCC(=O)NC3=O)c2)CC1 (centres unmarked) [Example 22, hydrochloride]"
  Result: "* (0<Y<=25%)"
- Compound: "C[C@@H]1CN(CCOc2ncc(N3C(=S)N(c4ccc(C#N)c(C(F)(F)F)c4)C(=O)C34CCC4)cc2C2CC2)C[C@H](C)N1CC(=O)Nc1cccc(NC2CCC(=O)NC2=O)c1 (some centres unmarked) [Example 229]"
  Result: "* (0<Y<=25%)"
- Compound: "CC(C)c1cc(N2C(=S)N(c3cnc(C#N)c(C(F)(F)F)c3)C(=O)C2(C)C)ccc1OCCN1C[C@@H](C)N(CC(=O)Nc2cccc(NC3CCC(=O)NC3=O)c2)C[C@H]1C (some centres unmarked) [Example 192]"
  Result: "** (25%<Y<=35%)"
- Compound: "CC[C@@H]1CN(CCOc2ccc(N3C(=S)N(c4ccc(C#N)c(C(F)(F)F)c4)C(=O)C3(C)C)cc2C2CC2)CCN1CC(=O)Nc1cccc(NC2CCC(=O)NC2=O)c1 (some centres unmarked) [Example 261]"
  Result: "** (25%<Y<=35%)"
- Compound: "CCc1cc(N2C(=S)N(c3ccc(C#N)c(C(F)(F)F)c3)C(=O)C2(C)C)ccc1OCCN1CCN(CC(=O)Nc2cccc(NC3CCC(=O)NC3=O)c2)[C@H](CO)C1 (some centres unmarked) [Example 50]"
  Result: "*** (35%<Y<50%)"
- Compound: "CCc1cc(N2C(=S)N(c3ccc(C#N)c(C(F)(F)F)c3)C(=O)C2(C)C)ccc1OCCN1CCN(CC(=O)Nc2cccc(N[C@@H]3CCC(=O)NC3=O)c2)[C@H](C)C1 [Example 112]"
  Result: "* (0<Y<=25%)"
- Compound: "CC(C)c1cc(N2C(=S)N(c3ccc(C#N)c(C(F)(F)F)c3)C(=O)C2(C)C)ccc1OCCN1C[C@@H](C)N(CC(=O)Nc2cc(C#N)cc(NC3CCC(=O)NC3=O)c2)[C@@H](C)C1 (some centres unmarked) [Example 194]"
  Result: "* (0<Y<=25%)"
- Compound: "CC(F)(F)c1cc(N2C(=S)N(c3ccc(C#N)c(C(F)(F)F)c3)C(=O)C2(C)C)ccc1OCCN1CCN(CC(=O)Nc2cc(Cl)cc(NC3CCC(=O)NC3=O)c2)CC1 (centres unmarked) [Example 157]"
  Result: "* (0<Y<=25%)"
- Compound: "CCc1cc(N2C(=S)N(c3ccc(C#N)c(C(F)(F)F)c3)C(=O)C2(C)C)ccc1OCCN1CCN(CC(=O)Nc2cccc(NC3CCC(=O)NC3=O)c2)[C@@H](CO)C1 (some centres unmarked) [Example 51]"
  Result: "*** (35%<Y<50%)"
